molecular target: Human CaV2.2 channels (Homo sapiens); construct: expressed in transfected cells; assay: Fluorescent assay for CaV2.2 channels using potassium depolarization to induce channel opening (FLIPR, Fluo 4); format: cell-based; details: read-out: Activity Category: %-Inhib (CaV2.2) @3 μM @30 mM KCl; 3 μM test compound; 30 mM KCl as printed; HEK293 cells stably expressing human CaV2.2
Sequence (Q00975 whole entry): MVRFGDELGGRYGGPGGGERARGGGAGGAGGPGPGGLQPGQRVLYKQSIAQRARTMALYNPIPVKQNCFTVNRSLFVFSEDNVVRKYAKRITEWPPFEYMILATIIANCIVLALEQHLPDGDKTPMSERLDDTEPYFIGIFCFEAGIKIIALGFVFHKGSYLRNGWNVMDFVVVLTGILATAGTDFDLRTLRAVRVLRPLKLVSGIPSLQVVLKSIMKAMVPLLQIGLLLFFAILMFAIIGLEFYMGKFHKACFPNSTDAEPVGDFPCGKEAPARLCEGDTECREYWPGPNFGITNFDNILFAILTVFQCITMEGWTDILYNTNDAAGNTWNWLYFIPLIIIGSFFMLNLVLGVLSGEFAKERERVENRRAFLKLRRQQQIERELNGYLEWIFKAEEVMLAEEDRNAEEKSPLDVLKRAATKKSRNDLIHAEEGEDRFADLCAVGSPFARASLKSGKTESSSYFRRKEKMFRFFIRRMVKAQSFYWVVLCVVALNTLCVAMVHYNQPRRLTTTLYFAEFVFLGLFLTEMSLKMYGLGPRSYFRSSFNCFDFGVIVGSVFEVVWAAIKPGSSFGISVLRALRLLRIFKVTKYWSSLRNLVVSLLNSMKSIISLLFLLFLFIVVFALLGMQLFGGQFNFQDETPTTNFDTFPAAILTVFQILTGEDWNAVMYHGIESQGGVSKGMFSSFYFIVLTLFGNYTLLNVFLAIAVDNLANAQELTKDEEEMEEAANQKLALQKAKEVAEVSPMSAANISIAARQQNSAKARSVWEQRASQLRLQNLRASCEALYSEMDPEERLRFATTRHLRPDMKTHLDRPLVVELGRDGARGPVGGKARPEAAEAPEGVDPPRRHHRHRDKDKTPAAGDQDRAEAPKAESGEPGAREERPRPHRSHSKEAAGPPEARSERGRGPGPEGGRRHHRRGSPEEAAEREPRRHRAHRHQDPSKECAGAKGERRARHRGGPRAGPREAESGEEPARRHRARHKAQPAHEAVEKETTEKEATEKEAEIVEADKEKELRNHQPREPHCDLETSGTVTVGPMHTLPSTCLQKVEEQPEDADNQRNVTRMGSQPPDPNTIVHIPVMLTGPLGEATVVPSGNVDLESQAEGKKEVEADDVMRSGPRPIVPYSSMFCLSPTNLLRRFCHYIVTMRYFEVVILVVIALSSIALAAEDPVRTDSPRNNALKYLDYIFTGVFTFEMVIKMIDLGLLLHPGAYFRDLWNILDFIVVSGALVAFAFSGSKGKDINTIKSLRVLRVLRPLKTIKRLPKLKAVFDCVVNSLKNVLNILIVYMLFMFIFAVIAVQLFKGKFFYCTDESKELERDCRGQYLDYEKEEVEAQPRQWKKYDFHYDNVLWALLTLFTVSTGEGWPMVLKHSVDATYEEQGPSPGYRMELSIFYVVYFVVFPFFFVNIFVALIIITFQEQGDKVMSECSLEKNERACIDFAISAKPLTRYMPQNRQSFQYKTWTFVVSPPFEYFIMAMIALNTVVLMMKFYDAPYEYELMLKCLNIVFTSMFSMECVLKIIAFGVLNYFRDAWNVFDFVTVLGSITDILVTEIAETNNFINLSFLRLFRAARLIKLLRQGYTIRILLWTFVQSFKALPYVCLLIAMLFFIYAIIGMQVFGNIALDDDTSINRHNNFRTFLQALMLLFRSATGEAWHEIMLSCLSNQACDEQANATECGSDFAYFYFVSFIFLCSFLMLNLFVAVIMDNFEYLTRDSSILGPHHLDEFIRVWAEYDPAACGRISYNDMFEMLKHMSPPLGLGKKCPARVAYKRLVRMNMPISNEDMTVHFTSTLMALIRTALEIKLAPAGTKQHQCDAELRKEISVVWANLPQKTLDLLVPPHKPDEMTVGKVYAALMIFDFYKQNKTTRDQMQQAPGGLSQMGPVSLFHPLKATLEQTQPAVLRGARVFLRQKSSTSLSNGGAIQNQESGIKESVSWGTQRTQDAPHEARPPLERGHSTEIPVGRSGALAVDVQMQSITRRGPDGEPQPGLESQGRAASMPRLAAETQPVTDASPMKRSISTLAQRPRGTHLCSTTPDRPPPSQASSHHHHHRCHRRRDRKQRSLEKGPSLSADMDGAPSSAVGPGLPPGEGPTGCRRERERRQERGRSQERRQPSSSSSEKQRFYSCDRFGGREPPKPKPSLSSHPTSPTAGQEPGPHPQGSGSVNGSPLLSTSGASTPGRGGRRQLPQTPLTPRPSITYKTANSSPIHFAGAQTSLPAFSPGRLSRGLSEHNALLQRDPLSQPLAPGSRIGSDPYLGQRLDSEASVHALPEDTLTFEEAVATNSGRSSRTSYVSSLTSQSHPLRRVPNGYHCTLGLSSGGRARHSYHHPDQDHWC
Sequence (P54289 25-1103, further chain): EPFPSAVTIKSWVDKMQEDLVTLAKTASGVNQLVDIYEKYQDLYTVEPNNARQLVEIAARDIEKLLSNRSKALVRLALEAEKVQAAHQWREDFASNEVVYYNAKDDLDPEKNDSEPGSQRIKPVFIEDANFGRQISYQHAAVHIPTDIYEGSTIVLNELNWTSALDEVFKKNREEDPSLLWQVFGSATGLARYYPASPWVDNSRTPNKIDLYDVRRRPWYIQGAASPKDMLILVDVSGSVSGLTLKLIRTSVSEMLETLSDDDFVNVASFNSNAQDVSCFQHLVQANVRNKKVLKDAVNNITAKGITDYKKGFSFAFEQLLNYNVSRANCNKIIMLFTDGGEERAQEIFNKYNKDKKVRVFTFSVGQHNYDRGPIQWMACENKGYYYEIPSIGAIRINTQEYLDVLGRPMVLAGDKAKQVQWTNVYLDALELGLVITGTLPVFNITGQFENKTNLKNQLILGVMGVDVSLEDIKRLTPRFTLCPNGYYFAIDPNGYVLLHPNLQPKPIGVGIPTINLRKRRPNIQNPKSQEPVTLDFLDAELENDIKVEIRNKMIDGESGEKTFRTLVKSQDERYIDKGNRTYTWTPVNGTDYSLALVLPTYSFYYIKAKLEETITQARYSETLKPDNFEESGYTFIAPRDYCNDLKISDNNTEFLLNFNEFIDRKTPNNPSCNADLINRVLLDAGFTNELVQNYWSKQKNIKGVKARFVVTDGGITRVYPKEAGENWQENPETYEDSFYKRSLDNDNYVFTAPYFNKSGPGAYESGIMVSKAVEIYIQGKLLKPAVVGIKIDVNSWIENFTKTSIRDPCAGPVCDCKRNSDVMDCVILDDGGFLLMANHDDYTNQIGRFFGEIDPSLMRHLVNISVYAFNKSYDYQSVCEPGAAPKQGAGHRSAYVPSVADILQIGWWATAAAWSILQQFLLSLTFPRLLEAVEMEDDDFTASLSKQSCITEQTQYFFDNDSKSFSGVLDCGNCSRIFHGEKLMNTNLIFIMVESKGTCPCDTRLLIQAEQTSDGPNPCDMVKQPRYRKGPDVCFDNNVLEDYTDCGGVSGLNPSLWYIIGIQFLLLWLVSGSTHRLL
Sequence (P54284 whole entry, further chain): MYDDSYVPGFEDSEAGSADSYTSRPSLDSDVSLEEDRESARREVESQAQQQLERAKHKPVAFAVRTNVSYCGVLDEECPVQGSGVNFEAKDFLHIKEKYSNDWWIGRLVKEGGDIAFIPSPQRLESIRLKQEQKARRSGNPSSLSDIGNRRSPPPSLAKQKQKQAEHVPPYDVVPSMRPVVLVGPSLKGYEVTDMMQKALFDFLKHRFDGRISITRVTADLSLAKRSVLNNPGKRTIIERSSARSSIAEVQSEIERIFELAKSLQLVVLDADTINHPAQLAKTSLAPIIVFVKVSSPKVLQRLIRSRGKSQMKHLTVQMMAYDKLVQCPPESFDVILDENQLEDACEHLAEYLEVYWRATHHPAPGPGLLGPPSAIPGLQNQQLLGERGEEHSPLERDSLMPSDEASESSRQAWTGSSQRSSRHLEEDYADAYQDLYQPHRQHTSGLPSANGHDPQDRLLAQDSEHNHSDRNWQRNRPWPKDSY
MEASUREMENT_TYPE: inhibition at 3 µM

Determine its reported inhibition at 3 µM: Cc1c(-c2ccc(Cl)cc2)c(C(=O)N(C)C(C)C)n(Cc2ncccn2)c1C(F)(F)F [Example 061]
> 95%

Determine its reported inhibition at 3 µM: Cc1noc(Cn2c(C(=O)N3CCOCC3)c(-c3ccc(Cl)cc3)c(C)c2C(F)(F)F)n1 [Example 018]
> 95%

Determine its reported inhibition at 3 µM: CN(CC(C)(C)C)C(=O)c1c(-c2ccc(Cl)cc2)cc(C(F)(F)F)n1Cc1ccc(F)cn1 [Example 029]
> 95%

State the recorded inhibition at 3 µM for every item in the following list.
1. Cc1c(-c2ccc(Cl)cc2)c(C(=O)N(C)CC(C)(C)C)n(-c2cnccn2)c1C(F)(F)F [Example 049]
2. Cc1c(-c2ccc(Cl)cc2)c(C(=O)N2CCOCC2)n(Cc2nncs2)c1C(F)(F)F [Example 024]

1: 75 to 95%; 2: 40 to 75%

State the recorded inhibition at 3 µM for every item in the following list.
1. Cc1ncc(Cn2c(C(=O)N3CCOCC3)c(-c3ccc(Cl)cc3)c(C)c2C(F)(F)F)cn1 [Example 043]
2. Cc1c(-c2ccc(Cl)cc2)c(C(=O)N2CCOCC2)n(Cc2cncc(Cl)c2)c1C(F)(F)F [Example 028]
3. CN(CC(C)(C)C)C(=O)c1c(-c2ccc(Cl)cc2)cc(C(F)(F)F)n1Cc1ccnc(C(F)(F)F)n1 [Example 033]
4. Cc1c(-c2ccc(Cl)cc2F)c(C(=O)N(C)C2CC2)n(Cc2ncccn2)c1C(F)(F)F [Example 063]

1: 75 to 95%; 2: > 95%; 3: 40 to 75%; 4: > 95%

State the recorded inhibition at 3 µM for every item in the following list.
1. CN(CC(C)(C)C)C(=O)c1c(-c2ccc(Cl)cc2)cc(C(F)(F)F)n1Cc1ncccn1 [Example 037]
2. Cc1c(-c2ccc(Cl)cc2F)c(C(=O)N(C)C(C)C)n(Cc2ncccn2)c1C(F)(F)F [Example 064]
3. Cc1ccnc(Cn2c(C(F)(F)F)cc(-c3ccc(Cl)cc3)c2C(=O)N(C)CC(C)(C)C)n1 [Example 036]
4. Cc1c(-c2ccc(Cl)cc2)c(C(=O)N2CCOCC2)n(CCn2ccccc2=O)c1C(F)(F)F [Example 055]

> 95%
> 95%
> 95%
40 to 75%

The reported measurements were obtained from patent US9802921B2.
